test: Cytotoxicity against human HuH7 cells; type: cell-based, Huh-7
Quantity kind: CC50 (µM)
Unit µM implied. Number only.

Past entries and their recorded results:
* CN1CCN(CCCNCc2cn(-c3ccc([N+](=O)[O-])cc3)nc2-c2ccc(Cl)cc2)CC1 | 3.7
* CN1CCN(CCNCc2cn(-c3ccc(F)cc3F)nc2-c2ccc(OC(F)(F)F)cc2)CC1 | 18
* Cc1ccccc1-c1nn(-c2ccc(Cl)cc2)cc1CNCCN1CCN(C)CC1 | 17
* CN1CCN(CCCNCc2cn(-c3ccc(C(F)(F)F)cc3)nc2-c2ccc(Cl)cc2)CC1 | 2.5
* Cc1ccccc1-c1nn(-c2cccc(C(F)(F)F)c2)cc1CNCCN1CCN(C)CC1 | 18

Give the value of CC50 reported for the following: CN1CCN(CCNCc2cn(-c3ccc([N+](=O)[O-])cc3)nc2-c2ccc(Cl)cc2)CC1
5

Give the value of CC50 reported for the following: CSc1ccc(-n2cc(CNCCN3CCN(C)CC3)c(-c3ccccc3C)n2)cc1
17

Give the value of CC50 reported for the following: Cc1ccccc1-c1nn(-c2ccc(C(F)(F)F)cc2)cc1CNCCN1CCN(C)CC1
11

Give the value of CC50 reported for the following: CN1CCN(CCNCc2cn(-c3ccc(F)cc3F)nc2-c2ccc(C(F)(F)F)cc2)CC1
20

Give the value of CC50 reported for the following: CN1CCN(CCCNCc2cn(-c3ccc([N+](=O)[O-])cc3)nc2-c2ccc(OC(F)(F)F)cc2)CC1
1.6
